experiment: Cytostatic activity against human WI38 cells after 72 hrs by MTT assay; assay type: cell-based; conditions: WI-38, 72 h
quantity: IC50 (µM)
One number for each entry, in µM.

compound | IC50 / µM
COc1cc(NC(C)CCCNC(=O)NCc2ccccc2)c2ncccc2c1 (stereo not given) | 35
COc1cc(NC(C)CCCNC(=O)NCc2ccncc2)c2ncccc2c1 (stereo not given) | 10
COc1cc(NC(C)CCCNC(=O)N(C2CCCCC2)C2CCCCC2)c2ncccc2c1 (stereo not given) | 18

Qu. Return reported IC50. Input compound: COc1cc(NC(C)CCCNC(=O)NC2CCCC2)c2ncccc2c1 (stereo not given)
Ans. 29

All values here come from ChEMBL document CHEMBL1156695.
